assayed.target: OGA (Homo sapiens)
Construct: HEK293 cells inducible for P301L mutant human Tau (isoform 2N4R) were established at Janssen; endogenous in cells; host or cells: HEK293 cells inducible for P301L mutant human Tau (2N4R)
protocol.summary: OGA cellular assay (ICC detection of O-GlcNAcylated proteins in HEK293 cells inducible for P301L mutant human Tau)
Type: cell-based
assay.setup: HEK293 cells inducible for P301L mutant human Tau, 6 hours incubation; read-out: Cellular hOGA; pEC50 (converted)
Assign EC50 to each entry below.

State EC50 (OGA (Homo sapiens)) of Cc1cccnc1OC1CCN(C(C)c2ccc3c(n2)OCCO3)CC1 (stereo not shown) .
> 1000 nM

Write down measured EC50 (OGA (Homo sapiens)) for this molecule. Cc1cc(COC2CCN(C(C)c3ccc4c(n3)OCCO4)CC2)cc(C)n1 (stereo not shown)
~501 nM

Look up and report measured EC50 (OGA (Homo sapiens)) for the following molecule: Cc1cc(OC2CCN(C(C)c3ccc4c(n3)OCCO4)CC2)ncc1C#N (stereo not shown)
501 nM

Specify EC50 for Cc1cc(CC2(F)CCN(C(C)c3ccc4c(n3)OCCO4)CC2)cc(C)n1 (stereo not shown) , system OGA (Homo sapiens).
> 1000 nM

---

assayed.target: OGA (Homo sapiens)
Construct: HEK293 cells inducible for P301L mutant human Tau (isoform 2N4R) were established at Janssen; endogenous in cells; host or cells: HEK293 cells inducible for P301L mutant human Tau (2N4R)
Sequence (O60502 1-916): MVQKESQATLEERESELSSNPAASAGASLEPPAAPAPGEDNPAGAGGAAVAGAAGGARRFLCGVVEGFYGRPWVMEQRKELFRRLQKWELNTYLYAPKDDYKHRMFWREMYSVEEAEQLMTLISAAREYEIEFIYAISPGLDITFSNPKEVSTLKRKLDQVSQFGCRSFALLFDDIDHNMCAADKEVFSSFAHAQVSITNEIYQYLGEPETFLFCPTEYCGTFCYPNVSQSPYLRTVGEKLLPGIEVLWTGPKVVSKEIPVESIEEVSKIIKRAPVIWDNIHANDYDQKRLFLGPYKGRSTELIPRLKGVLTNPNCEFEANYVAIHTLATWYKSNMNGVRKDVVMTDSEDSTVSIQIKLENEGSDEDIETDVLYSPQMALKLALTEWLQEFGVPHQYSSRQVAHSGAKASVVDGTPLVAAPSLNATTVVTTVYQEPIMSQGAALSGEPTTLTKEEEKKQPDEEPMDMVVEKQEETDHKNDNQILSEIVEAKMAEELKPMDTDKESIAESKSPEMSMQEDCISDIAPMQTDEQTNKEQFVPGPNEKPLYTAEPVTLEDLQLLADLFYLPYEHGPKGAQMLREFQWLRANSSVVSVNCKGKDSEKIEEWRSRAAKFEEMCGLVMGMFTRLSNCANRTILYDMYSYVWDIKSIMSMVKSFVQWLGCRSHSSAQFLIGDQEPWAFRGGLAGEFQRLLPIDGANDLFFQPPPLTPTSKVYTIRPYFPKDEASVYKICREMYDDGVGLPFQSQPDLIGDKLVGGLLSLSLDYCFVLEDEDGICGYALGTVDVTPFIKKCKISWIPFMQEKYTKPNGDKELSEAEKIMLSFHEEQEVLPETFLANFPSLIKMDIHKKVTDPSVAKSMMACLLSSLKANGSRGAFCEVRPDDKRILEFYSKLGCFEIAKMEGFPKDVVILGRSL
protocol.summary: OGA cellular assay (ICC detection of O-GlcNAcylated proteins in HEK293 cells inducible for P301L mutant human Tau)
Assay type: cell-based
assay.setup: HEK293 cells inducible for P301L mutant human Tau, 6 hours incubation; read-out: Cellular hOGA; pEC50 (converted)
metric: EC50

For the compound Cc1cccc(OC2CCN(C(C)c3ccc4c(n3)OCCO4)CC2)n1 (stereo not drawn) , report EC50.
> 1000 nM

Note down EC50 recorded for CC(c1ccc2c(n1)OCCO2)N1CCC(Oc2ccc(F)cn2)CC1 (stereo not drawn)
> 1000 nM

Give the value of EC50 reported for the following: Cc1ncc(COC2CCN([C@@H](C)c3nc4c(cc3F)OCCO4)CC2)cn1 (single isomer, unassigned)
> 1000 nM

---

assayed.target: recombinant human Meningioma Expressed Antigen 5 (MGEA5), also referred to as O-GlcNAcase (OGA) (Homo sapiens, UniProt O60502)
Construct: Full length OGA enzyme was purchased at OriGene (cat #TP322411); purchased OriGene TP322411
Sequence (O60502 1-916): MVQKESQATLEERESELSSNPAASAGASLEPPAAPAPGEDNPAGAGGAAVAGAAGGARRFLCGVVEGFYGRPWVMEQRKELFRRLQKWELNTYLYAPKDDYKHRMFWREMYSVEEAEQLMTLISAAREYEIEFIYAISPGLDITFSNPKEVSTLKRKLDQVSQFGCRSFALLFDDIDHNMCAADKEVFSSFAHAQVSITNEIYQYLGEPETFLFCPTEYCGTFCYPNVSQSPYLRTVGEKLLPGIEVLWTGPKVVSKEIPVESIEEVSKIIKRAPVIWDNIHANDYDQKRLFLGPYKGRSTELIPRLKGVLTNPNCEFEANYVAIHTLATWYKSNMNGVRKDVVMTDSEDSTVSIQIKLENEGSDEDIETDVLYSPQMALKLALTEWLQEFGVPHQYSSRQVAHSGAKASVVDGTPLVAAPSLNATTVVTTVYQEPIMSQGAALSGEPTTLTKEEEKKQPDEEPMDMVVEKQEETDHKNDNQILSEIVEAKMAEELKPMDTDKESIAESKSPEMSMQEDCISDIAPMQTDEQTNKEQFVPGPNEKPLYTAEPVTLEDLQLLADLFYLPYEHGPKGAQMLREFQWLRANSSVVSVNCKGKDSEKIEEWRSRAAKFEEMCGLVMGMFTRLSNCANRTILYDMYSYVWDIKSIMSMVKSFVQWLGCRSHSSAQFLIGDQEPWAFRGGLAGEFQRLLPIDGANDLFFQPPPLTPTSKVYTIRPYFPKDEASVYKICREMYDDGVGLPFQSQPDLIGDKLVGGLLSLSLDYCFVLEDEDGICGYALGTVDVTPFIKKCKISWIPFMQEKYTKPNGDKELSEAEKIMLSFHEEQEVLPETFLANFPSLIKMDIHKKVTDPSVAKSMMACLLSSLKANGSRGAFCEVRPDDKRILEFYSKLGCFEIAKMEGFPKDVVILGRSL
protocol.summary: OGA biochemical assay (inhibition of FM-GlcNAc hydrolysis, fluorescence)
assay.setup: read-out: Enzymatic Emax (%)
Would you kindly list Emax for each of these compounds?
Field: numeric (%). Do not append units.

Respond only with Emax recorded for Cc1cc(OC2CCN(C(C)c3cnc4c(c3)OCC4)CC2)cc(C)n1 (stereo not drawn)
89

Return reported Emax. Input compound: CC(c1ccc2c(n1)OCCO2)N1CCC(Oc2ncc(C#N)cc2F)CC1 (stereo not drawn)
97

Could you please provide reported Emax for Cc1cc(OC2CCN(C(C)c3ccc4c(n3)OCCO4)CC2)c(Cl)c(C)n1 (stereo not drawn) ? Thanks!
96

Read the entry CC(c1ccc2c(n1)OCCO2)N1CCC(Oc2ccc(OC(F)(F)F)cn2)CC1 (stereo not drawn) and write its reported Emax.
99

State its Emax: CNC(=O)c1ccc(OC2CCN(C(C)c3ccc4c(n3)OCCO4)CC2)cn1 (stereo not drawn)
100

Answer with the recorded Emax for the compound listed here: COc1cc(OC2CCN([C@H](C)c3nc4nc(C)sc4cc3F)CC2)cc(C)n1 (single isomer, unassigned)
96

---

Hi there, I'd appreciate the recorded IC50 for every entry that follows.
assayed.target: recombinant human Meningioma Expressed Antigen 5 (MGEA5), also referred to as O-GlcNAcase (OGA) (Homo sapiens)
Construct: Full length OGA enzyme was purchased at OriGene (cat #TP322411); purchased OriGene TP322411
protocol.summary: OGA biochemical assay (inhibition of FM-GlcNAc hydrolysis, fluorescence)
assay.setup: read-out: Enzymatic hOGA, pIC50 (converted)
Report the value in nM with no unit label.

Give me measured IC50, please, for this compound: Cc1cc(OC2CCN(C(C)c3nc4nc(C)sc4cc3F)CC2)nc(C)n1 (stereo not drawn)
15.8

Given the compound Cc1ccc(COC2CCN(C(C)c3nc4c(cc3F)OCCO4)CC2)cn1 (stereo not drawn) , write its reported IC50.
20

State, in one line, measured IC50 of Cc1cncc(OC2CCN(C(C)c3nc4c(cc3F)OCCO4)CC2)n1 (stereo not drawn)
12.6

Determine its reported IC50: CC(c1ccc2c(n1)OCCO2)N1CCC(Oc2ccc(C(F)(F)F)cn2)CC1 (stereo not drawn)
100

Supply measured IC50 of Cc1cc(COC2CCN(Cc3ccc4sc(C)nc4n3)CC2)cc(C)n1 in your reply.
1260

Answer with reported IC50 of COc1cc(OC2CCN(C(C)c3cnc4c(c3)OCCO4)CC2)cc(C)n1 (stereo not drawn)
398

# return recorded IC50 for entry Cc1cc(OC2CCN(C(C)c3nc4c(cc3F)OCCO4)CC2)c(Cl)c(C)n1 (stereo not drawn)
12.6

Provide only the value of recorded IC50 for Cc1ncc(COC2CCN(C(C)c3nc4c(cc3F)OCCO4)CC2)cn1 (single isomer, unassigned) [Compound 136]
12.6

Tell me IC50 reported for Cc1ccnc(OC2CCN(C(C)c3ccc4c(n3)OCCO4)CC2)c1 (stereo not drawn)
200
